These measurements were taken from ChEMBL document CHEMBL3879914.

Target: UniProtKB P41587
Sequence (whole entry): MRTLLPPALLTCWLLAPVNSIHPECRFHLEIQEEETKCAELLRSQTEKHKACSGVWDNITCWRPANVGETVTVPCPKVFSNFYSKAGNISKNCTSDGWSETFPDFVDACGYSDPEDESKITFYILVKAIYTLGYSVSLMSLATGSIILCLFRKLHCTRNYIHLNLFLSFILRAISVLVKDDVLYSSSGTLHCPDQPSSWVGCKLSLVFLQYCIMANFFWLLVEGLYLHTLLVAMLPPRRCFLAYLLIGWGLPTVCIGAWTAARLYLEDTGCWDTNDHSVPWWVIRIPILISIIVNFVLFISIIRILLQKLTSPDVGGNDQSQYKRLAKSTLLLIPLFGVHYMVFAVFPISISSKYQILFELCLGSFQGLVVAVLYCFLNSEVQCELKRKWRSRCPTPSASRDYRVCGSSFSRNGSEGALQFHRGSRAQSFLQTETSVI
Assay: Antagonist activity at recombinant human N-terminal signal peptide/FLAG epitope-tagged VIPR2 expressed in HEK293 cells co-expressing CAMYEL assessed as inhibition of VIP-induced cAMP accumulation at 5 uM preincubated for 5 mins with luciferin, coelenterazine H followed by VIP addition measured after 5 mins by BRET assay relative to control
Type: functional, cell-based
measurement.label: inhibition (%)
Return type: number; implicit unit %.

// lookup inhibition for `CC(C)Nc1ccc(S(=O)(=O)NC[C@@H](O)C[C@@H](Cc2ccccc2)C(=O)N[C@H]2c3ccccc3C[C@H]2O)cc1`
20.6

// lookup inhibition for `O=C(NCc1ccccc1)[C@@H](Cc1ccccc1)C[C@H](O)CNS(=O)(=O)c1ccc([N+](=O)[O-])cc1`
4.9

// lookup inhibition for `O=C(NC1CCCCCC1)[C@H](Cc1ccccc1)C[C@H](O)CNS(=O)(=O)c1ccc([N+](=O)[O-])cc1`
12.9

// lookup inhibition for `Cc1ccc(S(=O)(=O)NC[C@@H](O)C[C@@H](Cc2ccccc2)C(=O)N[C@H]2c3ccccc3C[C@H]2O)cc1`
98.2

// lookup inhibition for `O=C(NC[C@@H](O)C[C@@H](Cc1ccccc1)C(=O)N[C@H]1c2ccccc2C[C@H]1O)c1ccccc1[N+](=O)[O-]`
9.1

// lookup inhibition for `O=C(N[C@H]1c2ccccc2C[C@H]1O)[C@H](Cc1ccccc1)C[C@H](O)CNS(=O)(=O)c1ccc(C(=O)N2CCCCC2)cc1`
-1.4

// lookup inhibition for `CCCCNC(=O)c1ccc(S(=O)(=O)NC[C@@H](O)C[C@@H](Cc2ccccc2)C(=O)N[C@H]2c3ccccc3C[C@H]2O)cc1`
20.6

// lookup inhibition for `CC(C)C(=O)NC[C@@H](O)C[C@@H](Cc1ccccc1)C(=O)N[C@H]1c2ccccc2C[C@H]1O`
-0.9

// lookup inhibition for `CNC(=O)[C@H](Cc1ccccc1)C[C@H](O)CNS(=O)(=O)c1ccc([N+](=O)[O-])cc1`
9.3

// lookup inhibition for `CC(C)C(=O)Nc1ccc(S(=O)(=O)NC[C@@H](O)C[C@@H](Cc2ccccc2)C(=O)N[C@H]2c3ccccc3C[C@H]2O)cc1`
16.7

// lookup inhibition for `CCN(CC)C(=O)[C@H](Cc1ccccc1)C[C@H](O)CNS(=O)(=O)c1ccc([N+](=O)[O-])cc1`
-4.3

// lookup inhibition for `CCCCNC(=O)[C@@H](Cc1ccccc1)C[C@H](O)CNS(=O)(=O)c1ccc([N+](=O)[O-])cc1`
6.2

// lookup inhibition for `O=C(NC1CCCC1)c1ccc(S(=O)(=O)NC[C@@H](O)C[C@@H](Cc2ccccc2)C(=O)N[C@H]2c3ccccc3C[C@H]2O)cc1`
31.8

// lookup inhibition for `Cc1ccc([N+](=O)[O-])cc1S(=O)(=O)NC[C@@H](O)C[C@@H](Cc1ccccc1)C(=O)N[C@H]1c2ccccc2C[C@H]1O`
18.3

// lookup inhibition for `CCCNc1ccc(S(=O)(=O)NC[C@@H](O)C[C@@H](Cc2ccccc2)C(=O)N[C@H]2c3ccccc3C[C@H]2O)cc1`
24.5

// lookup inhibition for O=C(NC1CCCc2ccccc21)[C@H](Cc1ccccc1)C[C@H](O)CNS(=O)(=O)c1ccc([N+](=O)[O-])cc1 (stereo partly drawn)
17.5

// lookup inhibition for `CC(C)(C)c1ccc(C(=O)NC[C@@H](O)C[C@@H](Cc2ccccc2)C(=O)N[C@H]2c3ccccc3C[C@H]2O)cc1`
23.2
